- experimental system: matriptase (Homo sapiens)
- Construct: Charles Craik, UCSF (obtained from another laboratory)
- test: Fluorescent kinetic enzyme inhibitor assay of matriptase
- Assay type: biochemical
- condition description: Table 9.1; Fluorogenic Assay
experimental readout: Ki (nM)

Worked cases, answers included:
1. N=C(N)c1cccc(C[C@H](NS(=O)(=O)c2ccc3ccccc3c2)C(=O)N2CCN(c3ccccc3)CC2)c1 [Compound 25g]    1800
2. CC(C)CN1CCN(C(=O)[C@H](Cc2cccc(C(=N)N)c2)NS(=O)(=O)c2ccc3ccccc3c2)CC1 [Compound 30]    12400
3. CCCCCCNC(=O)N1CCN(C(=O)[C@H](Cc2cccc(C(=N)N)c2)NS(=O)(=O)c2ccc3ccccc3c2)CC1 [Compound 25d]    14900
4. N=C(N)c1cccc(C[C@H](NS(=O)(=O)c2ccc3ccccc3c2)C(=O)N2CCN(C(=O)Cc3cccc(O)c3)CC2)c1 [Compound 31]    4400
5. N=C(N)c1cccc(C[C@H](NS(=O)(=O)c2ccc3ccccc3c2)C(=O)N2CCN(C(=O)NCc3ccc(Br)cc3)CC2)c1 [Compound 25a]    4200
6. Cc1ccc(S(=O)(=O)N[C@@H](Cc2cccc(C(=N)N)c2)C(=O)N2CCC(c3ccccc3)CC2)cc1 [Compound 25b]    570

[a] N=C(N)c1cccc(C[C@H](NS(=O)(=O)c2ccc3ccccc3c2)C(=O)N2CCN(C(=O)c3csc4ccccc34)CC2)c1 [Compound 25e]
[b] N=C(N)c1cccc(C[C@H](NS(=O)(=O)c2ccc3ccccc3c2)C(=O)N2CCC(c3ccccc3)CC2)c1 [Compound 16]
Data request: When the recorded Ki values are compared, which is smaller: that of a or that of b ? State the label of the item chosen.
Data returned: b
(b: 300 nM, a: 1200 nM)

###

- experimental system: hepsin (Homo sapiens, UniProt P05981)
- Construct: purchased R&D Systems 4776-SE-010
- Sequence (P05981 163-417 limits assumed): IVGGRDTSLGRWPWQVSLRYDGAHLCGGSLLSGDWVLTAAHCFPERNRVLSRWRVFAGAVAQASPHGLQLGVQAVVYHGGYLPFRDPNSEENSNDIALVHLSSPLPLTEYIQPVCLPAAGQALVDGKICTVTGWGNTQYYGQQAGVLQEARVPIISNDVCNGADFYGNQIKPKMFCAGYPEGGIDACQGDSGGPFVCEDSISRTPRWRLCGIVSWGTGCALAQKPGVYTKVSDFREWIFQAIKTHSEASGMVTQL
- Sequence (P05981 45-162 partner limits assumed): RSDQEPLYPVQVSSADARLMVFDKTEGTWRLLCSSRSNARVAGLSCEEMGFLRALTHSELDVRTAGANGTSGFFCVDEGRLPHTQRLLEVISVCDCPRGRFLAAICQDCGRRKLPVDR
- test: Fluorescent kinetic enzyme inhibitor assay of hepsin
- Type: biochemical
- condition description: Table 9.2; Fluorogenic Assay; read-out: Hepsin Ki
experimental readout: Ki (nM)

1) N=C(N)c1cccc(C[C@H](NS(=O)(=O)c2ccc3ccccc3c2)C(=O)N2CCC[C@@H](NC(=O)OCc3ccccc3)C2)c1 [Compound 25f]    2800

[a] Cc1ccc(S(=O)(=O)N[C@@H](Cc2cccc(C(=N)N)c2)C(=O)N2CCC[C@H](NC(=O)OCc3ccccc3)C2)cc1 [Compound 18]
[b] Cc1ccc(S(=O)(=O)N[C@@H](Cc2cccc(C(=N)N)c2)C(=O)N2CCCC(C(=O)NCCc3ccccc3)C2)cc1 (stereo partly drawn) [Compound 25c]
Data request: When a and b are compared, which has the higher number for Ki? State the label of the item chosen.
Data returned: a
(a: 2300 nM, b: 670 nM)

###

- experimental system: HGFA (Homo sapiens)
- Construct: His6 tag (N); seven amino acid spacer and seven amino acid TEV cleavage site (N); Honey Bee melittin signal peptide (N); made in house; host or cells: High 5 insect cells (baculovirus; virus raised in Sf9)
- Sequence (Q04756 373-655): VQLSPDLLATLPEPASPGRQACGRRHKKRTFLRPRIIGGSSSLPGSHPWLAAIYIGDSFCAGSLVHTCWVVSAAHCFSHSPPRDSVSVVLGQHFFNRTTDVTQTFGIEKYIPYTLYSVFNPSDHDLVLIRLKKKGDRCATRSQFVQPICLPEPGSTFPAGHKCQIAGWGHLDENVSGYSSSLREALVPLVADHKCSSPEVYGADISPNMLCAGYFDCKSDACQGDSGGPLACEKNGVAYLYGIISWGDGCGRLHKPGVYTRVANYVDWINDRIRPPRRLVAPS
- test: Fluorescent kinetic enzyme inhibitor assay of HGFA
- Assay type: biochemical
- condition description: Table 6.1; Fluorogenic Assay; read-out: HGFA Ki
- Description: Using primers identified as SEQ ID NO 1, SEQ ID NO 2, and standard PCR protocols, the nucleotide sequence encoding amino acids 373-655 of HGFA was synthesized. This PCR product was cloned into the SfoI-HindIII sites of a modified pFastBac HT baculovirus expression vector (Addgene, Cambridge, Mass.). […] Protein was quantitated using a modified Lowry protein assay (#500-0006, Bio-Rad Laboratories, Hercules, Calif.). […]
pKi: −log10 of the molar value.
experimental readout: pKi

1) CC(C)C[C@H](NC(=O)[C@H](N)Cc1c[nH]c2ccccc12)C(=O)N[C@@H](CCCNC(=N)N)C(=O)c1nc2ccccc2s1    6.89
2) N=C(N)NCCC[C@H](NC(=O)[C@H](Cc1ccccc1)NC(=O)OCC1c2ccccc2-c2ccccc21)C(=O)c1nc2ccccc2s1    6.02
3) CC(=O)N[C@@H](CO)C(=O)N[C@@H](CCCCN)C(=O)N[C@@H](CC(C)C)C(=O)N[C@@H](CCCNC(=N)N)C(=O)c1nc2ccc(C(=O)O)cc2s1 [Compound 7118, Ac-SKLR(SEQ ID NO: 10)-Kbt-COOH]    6.88

###

- experimental system: matriptase (Homo sapiens, UniProt Q9Y5Y6)
- Sequence (Q9Y5Y6 615-855 limits assumed): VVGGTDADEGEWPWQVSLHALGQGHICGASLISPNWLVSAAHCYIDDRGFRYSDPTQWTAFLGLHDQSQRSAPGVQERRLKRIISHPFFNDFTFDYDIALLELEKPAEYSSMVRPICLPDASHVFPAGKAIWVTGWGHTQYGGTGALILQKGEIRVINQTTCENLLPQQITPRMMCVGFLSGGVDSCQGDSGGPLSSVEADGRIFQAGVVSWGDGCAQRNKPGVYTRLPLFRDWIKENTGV
pIC50: −log10 of the molar value.
experimental readout: pIC50

Worked cases, answers included:
1. CC(=O)N[C@@H](CCCCN)C(=O)N[C@@H](CCCNC(=N)N)C(=O)N[C@@H](CC(C)C)C(=O)N[C@@H](CCCNC(=N)N)C(=O)c1nccs1 [Compound 5g, Ac-KRLR(SEQ ID NO: 8)-kt]    7.85
2. CC(=O)N[C@@H](CO)C(=O)N[C@@H](CCCCN)C(=O)N[C@@H](Cc1ccccc1)C(=O)N[C@@H](CCCNC(=N)N)C(=O)c1nccs1 [Compound 6c, Ac-SKFR(SEQ ID NO: 13)-kt]    7.47
3. CC(=O)N[C@@H](CCCCN)C(=O)N[C@@H](CCC(N)=O)C(=O)N[C@@H](CC(C)C)C(=O)N[C@@H](CCCNC(=N)N)C(=O)c1nccs1 [Compound 5, Ac-KQLR(SEQ ID NO: 1)-kt]    8.30
4. CC(=O)N[C@@H](Cc1c[nH]c2ccccc12)C(=O)N[C@@H](CCCNC(=N)N)C(=O)N[C@@H](CC(C)C)C(=O)N[C@@H](CCCNC(=N)N)C(=O)c1nccs1 [Compound 5h, Ac-WRLR(SEQ ID NO: 9)-kt]    7.51
5. CC(=O)N[C@@H](CO)C(=O)N[C@@H](CCCCN)C(=O)N[C@@H](CC(C)C)C(=O)N[C@@H](CCCNC(=N)N)C(=O)c1nccs1 [Compound 6, Ac-SKLR(SEQ ID NO: 10)-kt]    7.32
6. CC(=O)N[C@@H](CCCNC(=N)N)C(=O)N[C@@H](CCC(N)=O)C(=O)N[C@@H](CC(C)C)C(=O)N[C@@H](CCCNC(=N)N)C(=O)c1nccs1 [Compound 5e, Ac-RQLR(SEQ ID NO: 6)-kt]    9.00
7. CC(=O)N[C@@H](CO)C(=O)N[C@@H](Cc1c[nH]cn1)C(=O)N[C@@H](CC(C)C)C(=O)N[C@@H](CCCNC(=N)N)C(=O)c1nccs1 [Compound 6a, Ac-SHLR(SEQ ID NO: 11)-kt]    6.25
8. CC(=O)N[C@@H](Cc1c[nH]c2ccccc12)C(=O)N[C@@H](CCC(N)=O)C(=O)N[C@@H](CC(C)C)C(=O)N[C@@H](CCCNC(=N)N)C(=O)c1nccs1 [Compound 5b, Ac-WQLR(SEQ ID NO: 3)-kt]    7.31
9. CC(=O)N[C@@H](CC(C)C)C(=O)N[C@@H](CC(C)C)C(=O)N[C@H](C=O)CCCNC(=N)N [Leupeptin, reference compound]    5.94
10. CC(=O)N[C@@H](CCCCN)C(=O)N[C@@H](Cc1ccccc1)C(=O)N[C@@H](CC(C)C)C(=O)N[C@@H](CCCNC(=N)N)C(=O)c1nccs1 [Compound 5d, Ac-KFLR(SEQ ID NO: 5)-kt]    7.46

[I] CC(=O)N[C@@H](CO)C(=O)N[C@@H](CCCNC(=N)N)C(=O)N[C@@H](CC(C)C)C(=O)N[C@@H](CCCNC(=N)N)C(=O)c1nccs1 [Compound 6e, Ac-SRLR(SEQ ID NO: 15)-kt]
[II] CC(=O)N[C@@H](CO)C(=O)N[C@@H](Cc1c[nH]c2ccccc12)C(=O)N[C@@H](CC(C)C)C(=O)N[C@@H](CCCNC(=N)N)C(=O)c1nccs1 [Compound 6g, Ac-SWLR(SEQ ID NO: 17)-kt]
Data request: When I and II are compared, which has the higher number for pIC50? State the label of the item chosen.
Data returned: I
(I: 7.62, II: 6.76)

###

- experimental system: hepsin (Homo sapiens, UniProt P05981)
- Construct: purchased R&D Systems 4776-SE-010
- test: Fluorescent kinetic enzyme inhibitor assay of hepsin
- Assay type: biochemical
- condition description: Table 4.2; Boc-QAR-AMC substrate; read-out: Hepsin Ki
experimental readout: Ki (pM)

Worked cases, answers included:
1. CC(=O)N[C@@H](Cc1c[nH]c2ccccc12)C(=O)N[C@@H](CCCNC(=N)N)C(=O)N[C@@H](CC(C)C)C(=O)N[C@@H](CCCNC(=N)N)C(=O)c1nccs1 [Compound 5h, Ac-WRLR(SEQ ID NO: 9)-kt]    210
2. CC(=O)N[C@@H](Cc1c[nH]c2ccccc12)C(=O)N[C@@H](CCC(N)=O)C(=O)N[C@@H](CC(C)C)C(=O)N[C@@H](CCCNC(=N)N)C(=O)c1nccs1 [Compound 5b, Ac-WQLR(SEQ ID NO: 3)-kt]    210

[A] CC(=O)N[C@@H](CCCCN)C(=O)N[C@@H](CCC(N)=O)C(=O)N[C@@H](CC(C)C)C(=O)N[C@@H](CCCNC(=N)N)C(=O)c1nccs1 [Compound 5, Ac-KQLR(SEQ ID NO: 1)-kt]
[B] CC(=O)N[C@@H](CCCCN)C(=O)N[C@@H](CCC(N)=O)C(=O)N[C@@H](Cc1ccccc1)C(=O)N[C@@H](CCCNC(=N)N)C(=O)c1nccs1 [Compound 5c, Ac-KQFR(SEQ ID NO: 4)-kt]
[C] CC(=O)N[C@@H](CCCCN)C(=O)N[C@@H](Cc1ccccc1)C(=O)N[C@@H](CC(C)C)C(=O)N[C@@H](CCCNC(=N)N)C(=O)c1nccs1 [Compound 5d, Ac-KFLR(SEQ ID NO: 5)-kt]
Data request: Arrange the 3 entries by Ki so the values rise. Respond with an ordered listing of the labels, as requested.
Data returned: A, B, C
(A: 190 pM, B: 580 pM, C: 2100 pM)
